assay: in vivo
Type: in vivo, CD-1 mice
condition-context: female, CD-1, mouse, in vivo, 100 mg/kg, Kp,uu, 1 hour
parameter: Kp uu at 1 h
Numbers only.

Please give the measured Kp uu at 1 h for this compound: `C=C(F)C(=O)N1CCN(c2nc(OC[C@@H]3CCCN3C)nc3c2CCN(c2cccc4cccc(Cl)c24)C3)C[C@@H]1CC#N`
0.4

---

assay: in vivo
Format: in vivo, CD-1 mice
condition-context: female, mouse, in vivo, 200 mg/kg, unbound brain to unbound plasma concentration ratio (Kp,uu), 8 hours
parameter: Kp uu at 8 h

Endpoint output: Kp uu at 8 h of C=C(F)C(=O)N1CCN(c2nc(OC[C@@H]3CCCN3C)nc3c2CCN(c2cccc4cccc(Cl)c24)C3)C[C@@H]1CC#N [adagrasib, Adagrasib] . Value?
~1

---

assay: in vivo
Type: in vivo, CD-1 mice
condition-context: female, CD-1, mouse, in vivo, 100 mg/kg, Kp,uu, 8 hours
parameter: Kp uu at 8 h

Tell me the measured Kp uu at 8 h of `C=C(F)C(=O)N1CCN(c2nc(OC[C@@H]3CCCN3C)nc3c2CCN(c2cccc4cccc(Cl)c24)C3)C[C@@H]1CC#N` , please.
~0.2
